Molecular target: Kappa-type opioid receptor (Homo sapiens, UniProt P41145)
Sequence (P41145 whole entry): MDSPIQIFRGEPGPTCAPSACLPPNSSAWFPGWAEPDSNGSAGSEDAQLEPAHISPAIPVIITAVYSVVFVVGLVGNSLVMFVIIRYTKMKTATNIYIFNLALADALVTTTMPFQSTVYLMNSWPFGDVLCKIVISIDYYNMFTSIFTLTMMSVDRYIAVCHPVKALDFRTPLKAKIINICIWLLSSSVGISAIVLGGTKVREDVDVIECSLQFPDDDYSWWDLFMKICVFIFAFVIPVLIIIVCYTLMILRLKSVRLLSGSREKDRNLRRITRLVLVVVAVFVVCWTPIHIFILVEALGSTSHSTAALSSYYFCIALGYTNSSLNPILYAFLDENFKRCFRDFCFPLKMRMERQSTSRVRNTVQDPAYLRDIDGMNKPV
Assay: Inverse agonist activity at human KOR expressed in human HTLA cells assessed as beta arrestin-2 recruitment at 10 uM by ONE-Glo luciferase assay relative to 1-(5-(2-Chlorophenyl)-7,8-dimethoxy-3-(3-methoxybenzyl)-3H-pyrazolo(3,4-c)isoquinolin-1-yl)-N-(3-methoxybenzyl)-methanamine
Type: functional, cell-based
experimental readout: Emax (%)
Use % as the unit, but write only the number.

Lookup: Emax / Kappa-type opioid receptor (Homo sapiens, UniProt P41145) / `O=C(Cc1ccc(Cl)c(Cl)c1)N1CCCC[C@H]1CN1CCCC1`
-100

Now the same for `COc1cccc(Cn2nc(CNCc3cc4ccccc4[nH]3)c3c4cc(OC)c(OC)cc4c(-c4ccccc4Cl)nc32)c1`
-98.3

Now the same for `COc1cc2c(-c3ccccc3Cl)nc3c(c(CNCc4cccc(Oc5ccccc5)c4)nn3CC3CCN(C(=O)OC(C)(C)C)CC3)c2cc1OC`
-99.4

Now the same for `COc1cccc(Cn2nc(CNCc3ccccc3Oc3ccccc3)c3c4cc(OC)c(OC)cc4c(-c4ccccc4Cl)nc32)c1`
-104

Now the same for `COc1ccc(CNCc2nn(Cc3cccc(OC)c3)c3nc(-c4ccccc4Cl)c4cc(OC)c(OC)cc4c23)cc1`
-98.2

Now the same for `COc1cccc(Cn2nc(CNCc3cccc(Oc4ccccc4)c3)c3c4cc(OC)c(OC)cc4c(-c4ccccc4Cl)nc32)c1`
-100

Now the same for `COc1cc2c(-c3ccccc3Cl)nc3c(c(CNCc4cccc(Oc5ccccc5)c4)nn3CC3CCNCC3)c2cc1OC`
-95.1

Now the same for `COc1cccc(CCNCc2nn(Cc3cccc(OC)c3)c3nc(-c4ccccc4Cl)c4cc(OC)c(OC)cc4c23)c1`
-72.8

Now the same for `COc1cccc(Cn2nc(CNCc3ccc4ccccc4c3)c3c4cc(OC)c(OC)cc4c(-c4ccccc4Cl)nc32)c1`
-97.6

Now the same for `COc1cccc(Cn2nc(CNCCc3ccc4ccccc4c3)c3c4cc(OC)c(OC)cc4c(-c4ccccc4Cl)nc32)c1`
-97.2

Now the same for `COc1cccc(Cn2nc(CNCc3ccc(Oc4ccccc4)cc3)c3c4cc(OC)c(OC)cc4c(-c4ccccc4Cl)nc32)c1`
-91.8

Now the same for `COc1cccc(Cn2nc(CNCc3cccc4ccccc34)c3c4cc(OC)c(OC)cc4c(-c4ccccc4Cl)nc32)c1`
-96.7

Now the same for `COc1cc2c(-c3ccccc3Cl)nc3c(c(CNCc4cccc(Oc5ccccc5)c4)nn3Cc3cccc(Cl)c3)c2cc1OC`
-101

Now the same for `COc1cccc(Cn2nc(CNCc3cccc(OCc4ccccc4)c3)c3c4cc(OC)c(OC)cc4c(-c4ccccc4Cl)nc32)c1`
-103

Now the same for `COc1cccc(Cn2nc(CNCc3ccc(OC)c(OC)c3)c3c4cc(OC)c(OC)cc4c(-c4ccccc4Cl)nc32)c1`
-103

Now the same for `COc1cccc(Cn2nc(CNCCc3cccc(Oc4ccccc4)c3)c3c4cc(OC)c(OC)cc4c(-c4ccccc4Cl)nc32)c1`
-81.9

* * *

Molecular target: Kappa-type opioid receptor (Homo sapiens, UniProt P41145)
Assay: Displacement of [3H]diprenorphine from human KOR expressed in HEK293 cells incubated for 60 mins by liquid scintillation method
experimental readout: IC50 (nM)
Use nM as the unit, but write only the number.

Could you share which IC50 value was measured for `COc1cccc(Cn2nc(CNCc3cccc(OCc4ccccc4)c3)c3c4cc(OC)c(OC)cc4c(-c4ccccc4Cl)nc32)c1` ?
250

* * *

Biological target: Kappa-type opioid receptor (Homo sapiens, UniProt P41145)
Experiment: Inverse agonist activity at human KOR expressed in human HTLA cells assessed as beta arrestin-2 recruitment by ONE-Glo luciferase assay
Type: functional, cell-based
experimental readout: pEC50
Please express pEC50 as -log10 of the molar concentration.

Could you share which pEC50 value was measured for `COc1cccc(Cn2nc(CNCc3cccc(OCc4ccccc4)c3)c3c4cc(OC)c(OC)cc4c(-c4ccccc4Cl)nc32)c1` ?
8.03

Now the same for `COc1cccc(Cn2nc(CNCc3ccc4ccccc4c3)c3c4cc(OC)c(OC)cc4c(-c4ccccc4Cl)nc32)c1`
7.03

Now the same for `COc1cccc(CNCc2nn(Cc3cccc(OC)c3)c3nc(-c4ccccc4Cl)c4cc(OC)c(OC)cc4c23)c1`
6.90

Now the same for `COc1cc2c(-c3ccccc3Cl)nc3c(c(CNCc4cccc(Oc5ccccc5)c4)nn3CC3CCNCC3)c2cc1OC`
5.57

Now the same for `COc1cc2c(-c3ccccc3Cl)nc3c(c(CNCc4cccc(Oc5ccccc5)c4)nn3Cc3cccc(Cl)c3)c2cc1OC`
6.98

Now the same for `COc1ccc(CNCc2nn(Cc3cccc(OC)c3)c3nc(-c4ccccc4Cl)c4cc(OC)c(OC)cc4c23)cc1`
6.99

Now the same for `COc1cccc(Cn2nc(CNCc3ccc(OC)c(OC)c3)c3c4cc(OC)c(OC)cc4c(-c4ccccc4Cl)nc32)c1`
6.19

Now the same for `COc1cccc(Cn2nc(CNCCc3ccc4ccccc4c3)c3c4cc(OC)c(OC)cc4c(-c4ccccc4Cl)nc32)c1`
7.16

Now the same for `COc1cccc(Cn2nc(CNCCc3cccc(Oc4ccccc4)c3)c3c4cc(OC)c(OC)cc4c(-c4ccccc4Cl)nc32)c1`
6.64

Now the same for `O=C(Cc1ccc(Cl)c(Cl)c1)N1CCCC[C@H]1CN1CCCC1`
7.98

* * *

Target: Delta-type opioid receptor (Homo sapiens)
Sequence (P41143 whole entry): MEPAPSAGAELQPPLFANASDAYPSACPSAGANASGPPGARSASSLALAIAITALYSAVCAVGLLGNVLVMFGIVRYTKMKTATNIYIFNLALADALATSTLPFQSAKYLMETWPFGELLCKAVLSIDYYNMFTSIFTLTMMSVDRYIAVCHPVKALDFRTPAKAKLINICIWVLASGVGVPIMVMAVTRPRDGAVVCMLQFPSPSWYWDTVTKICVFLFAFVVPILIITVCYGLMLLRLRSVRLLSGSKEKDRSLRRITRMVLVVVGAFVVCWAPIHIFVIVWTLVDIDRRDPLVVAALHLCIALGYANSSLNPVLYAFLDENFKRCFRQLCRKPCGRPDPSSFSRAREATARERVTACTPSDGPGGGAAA
Test: Inverse agonist activity at human DOR expressed in human HTLA cells assessed as beta arrestin-2 recruitment by ONE-Glo luciferase assay
Please respond with reported EC50 for every item in the list.
Use nM as the unit, but write only the number.

Could you share which EC50 value was measured for `COc1cccc(CNCc2nn(Cc3cccc(OC)c3)c3nc(-c4ccccc4Cl)c4cc(OC)c(OC)cc4c23)c1` ?
483

Now the same for `COc1cccc(Cn2nc(CNCc3cccc(OCc4ccccc4)c3)c3c4cc(OC)c(OC)cc4c(-c4ccccc4Cl)nc32)c1`
207

Now the same for `COc1cccc(Cn2nc(CNCCc3ccc4ccccc4c3)c3c4cc(OC)c(OC)cc4c(-c4ccccc4Cl)nc32)c1`
691

Now the same for `COc1cccc(Cn2nc(CNCc3cccc(Oc4ccccc4)c3)c3c4cc(OC)c(OC)cc4c(-c4ccccc4Cl)nc32)c1`
49.5

* * *

Please respond with reported pEC50 for every item in the list.
Molecular target: Kappa-type opioid receptor (Homo sapiens, UniProt P41145)
Assay: Inverse agonist activity at human KOR expressed in human HTLA cells assessed as beta arrestin-2 recruitment by ONE-Glo luciferase assay
Please express pEC50 as -log10 of the molar concentration.

Lookup: pEC50 / Kappa-type opioid receptor (Homo sapiens, UniProt P41145) / `COc1cccc(Cn2nc(CNCc3ccc(Oc4ccccc4)cc3)c3c4cc(OC)c(OC)cc4c(-c4ccccc4Cl)nc32)c1`
6.47

Now the same for `COc1cc2c(-c3ccccc3Cl)nc3c(c(CNCc4cccc(Oc5ccccc5)c4)nn3CC3CCN(C(=O)OC(C)(C)C)CC3)c2cc1OC`
6.17

Now the same for `COc1cccc(Cn2nc(CNCc3cc4ccccc4[nH]3)c3c4cc(OC)c(OC)cc4c(-c4ccccc4Cl)nc32)c1`
6.47

Now the same for `COc1cccc(Cn2nc(CNCc3cccc(Oc4ccccc4)c3)c3c4cc(OC)c(OC)cc4c(-c4ccccc4Cl)nc32)c1`
8.04

Now the same for `COc1cccc(Cn2nc(CNCc3ccccc3Oc3ccccc3)c3c4cc(OC)c(OC)cc4c(-c4ccccc4Cl)nc32)c1`
7.26

Now the same for `COc1cccc(CCNCc2nn(Cc3cccc(OC)c3)c3nc(-c4ccccc4Cl)c4cc(OC)c(OC)cc4c23)c1`
5.97

Now the same for `COc1cccc(Cn2nc(CNCc3cccc4ccccc34)c3c4cc(OC)c(OC)cc4c(-c4ccccc4Cl)nc32)c1`
6.37

* * *

Biological target: Mu-type opioid receptor (Homo sapiens) (UniProt P35372)
Sequence (P35372 whole entry): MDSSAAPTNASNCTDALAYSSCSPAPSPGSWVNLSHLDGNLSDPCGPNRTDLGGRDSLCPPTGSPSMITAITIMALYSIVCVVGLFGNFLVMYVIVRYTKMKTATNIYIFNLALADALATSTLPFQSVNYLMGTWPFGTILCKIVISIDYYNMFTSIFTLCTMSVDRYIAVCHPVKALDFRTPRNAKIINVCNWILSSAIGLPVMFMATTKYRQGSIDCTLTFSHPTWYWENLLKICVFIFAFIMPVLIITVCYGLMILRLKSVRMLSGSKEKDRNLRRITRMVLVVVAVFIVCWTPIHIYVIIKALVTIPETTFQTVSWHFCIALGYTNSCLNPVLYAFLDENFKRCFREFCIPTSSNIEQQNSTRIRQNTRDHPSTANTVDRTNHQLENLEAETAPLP
Experiment: Inverse agonist activity at MOR (unknown origin) expressed in HEK293T cells assessed as beta arrestin-2 recruitment upto 10 uM incubated for 20 mins by NanoBiT assay
Assay type: functional, cell-based
Activity calls are given as the source filed them. The rule behind the calls is not given here.
experimental readout: Activity

Please review the following examples before continuing.
{"query smiles": "COc1cccc(Cn2nc(CNCc3cccc(OCc4ccccc4)c3)c3c4cc(OC)c(OC)cc4c(-c4ccccc4Cl)nc32)c1", "Activity": "inactive"}
{"query smiles": "COc1cccc(Cn2nc(CNCc3ccccc3Oc3ccccc3)c3c4cc(OC)c(OC)cc4c(-c4ccccc4Cl)nc32)c1", "Activity": "inactive"}
{"query smiles": "COc1cccc(Cn2nc(CNc3cccc(OC)c3)c3c4cc(OC)c(OC)cc4c(-c4ccccc4Cl)nc32)c1", "Activity": "inactive"}
{"query smiles": "COc1ccc(CNCc2nn(Cc3cccc(OC)c3)c3nc(-c4ccccc4Cl)c4cc(OC)c(OC)cc4c23)cc1", "Activity": "inactive"}
{"query smiles": "COc1cc2c(-c3ccccc3Cl)nc3c(c(CNCc4cccc(Oc5ccccc5)c4)nn3CC3CCN(C(=O)OC(C)(C)C)CC3)c2cc1OC", "Activity": "inactive"}
{"query smiles": "COc1cccc(Cn2nc(CNCc3ccc(Oc4ccccc4)cc3)c3c4cc(OC)c(OC)cc4c(-c4ccccc4Cl)nc32)c1", "Activity": "inactive"}

Query compound follows.
Could you share which Activity value was measured for `COc1cc2c(-c3ccccc3Cl)nc3c(c(CNCc4cccc(Oc5ccccc5)c4)nn3Cc3cccc(Cl)c3)c2cc1OC` ?
inactive

// provenance: ChEMBL document CHEMBL5380841
